Origin of values: patent US20120178682A1

Listed here: items and their measured koff.
- Target Or Test System: D-VEGF, synthetic D-protein form of VEGF-A(8-109) (Homo sapiens (Human)) (UniProt P15692)
- Sequence (P15692 214-315 limits assumed, form in doubt): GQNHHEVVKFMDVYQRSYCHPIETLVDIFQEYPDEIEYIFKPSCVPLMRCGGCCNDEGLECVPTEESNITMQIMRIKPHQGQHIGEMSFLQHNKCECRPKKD
- Experimental Protocol: SPR (ProteOn XPR36), D-VEGF immobilized
Parameter Measured: koff (s⁻¹)

>>> df
                                     binder   number
0  E01-D39F/V31A (designed binder) MKIEEHHHHHHHHHHGGSTYKLILNGKTLKGETTTEAVDVYDAFDVFFAYAASNFSFFDDWTYDDATKTFTVTEGGSDK  0.00167
1  E01-D39F/S35E (designed binder) MKIEEHHHHHHHHHHGGSTYKLILNGKTLKGETTTEAVDVYDAFDVFFVYAAENFSFFDDWTYDDATKTFTVTEGGSDK  0.00205
2  E01-D39F/D27E (designed binder) MKIEEHHHHHHHHHHGGSTYKLILNGKTLKGETTTEAVDVYDAFEVFFVYAASNFSFFDDWTYDDATKTFTVTEGGSDK  0.00158
3  E01-D39F/F40I (designed binder) MKIEEHHHHHHHHHHGGSTYKLILNGKTLKGETTTEAVDVYDAFDVFFVYAASNFSFIDDWTYDDATKTFTVTEGGSDK  0.00138
4  E01-D39F (designed binder) MKIEEHHHHHHHHHHGGSTYKLILNGKTLKGETTTEAVDVYDAFDVFFVYAASNFSFFDDWTYDDATKTFTVTEGGSDK  0.00132
5  E01-D39F/V22L (designed binder) MKIEEHHHHHHHHHHGGSTYKLILNGKTLKGETTTEAVDLYDAFDVFFVYAASNFSFFDDWTYDDATKTFTVTEGGSDK  0.00082
